- targetSystem: VEGFR2, unphosphorylated (Homo sapiens (Human), UniProt P35968)
- Sequence (P35968 20-1356): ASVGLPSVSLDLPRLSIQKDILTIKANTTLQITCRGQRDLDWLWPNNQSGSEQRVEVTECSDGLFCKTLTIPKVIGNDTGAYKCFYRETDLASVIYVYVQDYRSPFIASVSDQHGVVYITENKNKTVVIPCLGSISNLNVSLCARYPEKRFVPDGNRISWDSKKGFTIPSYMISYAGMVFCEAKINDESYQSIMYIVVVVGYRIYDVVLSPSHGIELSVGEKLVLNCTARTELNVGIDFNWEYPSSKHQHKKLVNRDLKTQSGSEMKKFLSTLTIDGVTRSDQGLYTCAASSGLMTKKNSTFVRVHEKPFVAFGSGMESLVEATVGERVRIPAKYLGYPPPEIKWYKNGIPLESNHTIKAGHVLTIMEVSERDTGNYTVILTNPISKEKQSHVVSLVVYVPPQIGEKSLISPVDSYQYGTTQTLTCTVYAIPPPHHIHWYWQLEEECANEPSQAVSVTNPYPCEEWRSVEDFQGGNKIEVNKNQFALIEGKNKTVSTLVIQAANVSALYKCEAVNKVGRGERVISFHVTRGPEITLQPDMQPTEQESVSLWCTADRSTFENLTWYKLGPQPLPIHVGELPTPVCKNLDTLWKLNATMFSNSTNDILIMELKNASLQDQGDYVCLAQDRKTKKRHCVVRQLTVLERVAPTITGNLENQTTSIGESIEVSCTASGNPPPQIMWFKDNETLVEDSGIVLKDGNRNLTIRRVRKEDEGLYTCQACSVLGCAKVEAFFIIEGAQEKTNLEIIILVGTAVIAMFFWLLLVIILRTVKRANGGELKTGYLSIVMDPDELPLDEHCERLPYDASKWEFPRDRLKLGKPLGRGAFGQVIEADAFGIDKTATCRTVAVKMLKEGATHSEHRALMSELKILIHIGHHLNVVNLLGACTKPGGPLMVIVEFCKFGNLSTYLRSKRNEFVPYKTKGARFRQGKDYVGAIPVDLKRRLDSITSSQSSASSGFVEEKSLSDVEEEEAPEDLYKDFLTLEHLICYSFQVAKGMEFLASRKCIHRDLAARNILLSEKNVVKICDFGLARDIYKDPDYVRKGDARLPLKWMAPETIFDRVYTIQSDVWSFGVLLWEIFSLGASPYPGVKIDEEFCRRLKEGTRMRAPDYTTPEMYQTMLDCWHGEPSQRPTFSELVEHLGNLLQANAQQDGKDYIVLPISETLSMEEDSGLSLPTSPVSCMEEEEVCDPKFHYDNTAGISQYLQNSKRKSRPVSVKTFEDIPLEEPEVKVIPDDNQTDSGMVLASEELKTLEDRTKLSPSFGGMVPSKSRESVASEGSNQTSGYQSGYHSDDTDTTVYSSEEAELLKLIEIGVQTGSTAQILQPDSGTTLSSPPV
- testDescription: VEGFR ADP GLO Assay
Catalogue of IC50 readings, one per entry.

In the examples that follow, each entry is paired with its recorded IC50.
## Input Name the reported IC50 value associated with the molecule Cc1ncc(NC(=O)CN2CCN(C)CC2)cc1NC(=O)c1cnn2cc(-c3cnn(C)c3)sc12 [Example 232]
## Output > 7.5 µM

## Input I'd like to know its IC50. The molecule in question is Cc1ncc(C(=O)NCCN2CCCC2(C)C)cc1NC(=O)c1cnn2cc(-c3cnn4c3COCC4)sc12 [Example 450]
## Output > 7.5 µM

## Input Please report the recorded IC50 for Cc1ncc(NC(=O)OCCN2CCCC2)cc1NC(=O)c1cnn2cc(-c3cnn(C)c3)sc12 [Example 246] .
## Output > 7.5 µM

## Input Dear colleague, I am looking for the recorded IC50 of the following molecule: Cc1ncc(NC(=O)CN2CC(C)(C)C2)cc1NC(=O)c1cnn2cc(-c3cnc4n3CCOC4)sc12 [Example 415]
## Output > 7.5 µM

Further cases:
## Input Give the measured IC50 of Cc1ncc(NC(=O)CNC2(C)CCC2)cc1NC(=O)c1cnn2cc(-c3cnn4c3OCCC4)sc12 [Example 495] .
## Output > 7.5 µM

## Input Find the recorded IC50 belonging to Cc1ncc(C(=O)NCCN2CC3CCC2CC3)cc1NC(=O)c1cnn2cc(-c3cnn(C)c3C)sc12 [Example 171] and report it.
## Output > 7.5 µM

## Input Fill blank: measured IC50 of the molecule Cc1ncc(NC(=O)CN2CC(C)(C)C2)cc1NC(=O)c1cnn2cc(-c3cnn(CC4COC4)c3)sc12 [Example 263] is ____.
## Output > 7.5 µM

## Input Need IC50 of Cc1ncc(NC(=O)CN2CC(C)(C)C2)cc1NC(=O)c1cnn2cc(-c3cnn4c3COCC4)sc12 [Example 476] , thanks.
## Output > 7.5 µM
